Reported values of inhibition at 31.25 µg/mL for individual entries
Tested on: Brugia malayi
Assay: Antifilarial activity against microfilariae Brugia malayi assessed as inhibition of motility at 31.25 ug/ml incubated for 48 hrs followed by washout measured after 1 hr in the absence of drug by microscopic analysis
Format: functional

COMPOUND	MEASUREMENT_UNITS	inhibition at 31.25 µg/mL
CC/C=C\C/C=C\C/C=C\CCCCCCCC(=O)OC[C@H](CO[C@@H]1O[C@H](CO[C@H]2O[C@H](CO)[C@H](O)[C@H](O)[C@H]2O)[C@H](O)[C@H](O)[C@H]1O)OC(=O)CCCCCCC/C=C\C/C=C\C/C=C\CC	%	100
Oc1cc(O)c2c(c1)O[C@@H](c1ccc(O)c(O)c1)[C@H](O)C2 [(-)-CATECHIN]	%	60
CCCCCCCC/C=C\CCCCCCCC(=O)OC[C@H](CO[C@@H]1O[C@H](CO[C@H]2O[C@H](CO)[C@H](O)[C@H](O)[C@H]2O)[C@H](O)[C@H](O)[C@H]1O)OC(=O)CCCCCCCCCCCCCCC	%	100
O=C(O)c1ccc(O)c(O)c1	%	60
Oc1cc(O)c2c(c1)O[C@H](c1ccc(O)c(O)c1)[C@H](O)C2 [(-)-EPICATECHIN]	%	50
CC/C=C\C/C=C\C/C=C\CCCCCCCC(=O)OC[C@H](CO[C@@H]1O[C@H](CO[C@H]2O[C@H](CO)[C@H](O)[C@H](O)[C@H]2O)[C@H](O)[C@H](O)[C@H]1O)OC(=O)CCCCCCCCCCCCCCC	%	100
CCCCCCCCCCCCCCCCCCCCCCCCCCCCO	%	100
Oc1ccc([C@H]2Oc3cc(O)cc(O)c3C[C@H]2O)cc1 [EPIAFZELECHIN (2R,3R)(-)]	%	59

src = ChEMBL document CHEMBL1949569
